# Tested Target: UniProt Q8N1Q1
# Method Notes: Binding affinity to human recombinant carbonic anhydrase 13 by isothermal titration calorimetry assay
Could you please report measured Kd for the items listed next?
Answer with a number only, understood to be in nM.

Kindly indicate its recorded Kd. Item: "NS(=O)(=O)c1cc(C(=O)CSc2nc3ccccc3[nH]2)ccc1Cl"
100

Kindly indicate its recorded Kd. Item: "NS(=O)(=O)c1cc(C(=O)CSc2nc3cc4c(cc3[nH]2)OCCO4)ccc1Cl"
300

Kindly indicate its recorded Kd. Item: "NS(=O)(=O)c1cc(C(=O)CSc2nc3ccc(Br)cc3[nH]2)ccc1Cl"
200

----------
# Tested Target: Carbonic anhydrase 2 (Homo sapiens)
# Method Notes: Binding affinity to human recombinant carbonic anhydrase 2 by isothermal titration calorimetry assay
Result Type: pKd
In textbook form, pKd equals minus log to base ten of the concentration in mol/L.

Would you please give the reported pKd of "NS(=O)(=O)c1cc(C(=O)CSc2nc3ccccc3[nH]2)ccc1Cl" with Carbonic anhydrase 2 (Homo sapiens)?
7.00

----------
# Tested Target: Carbonic anhydrase 13 (Homo sapiens)
# Sequence (Q8N1Q1 whole entry): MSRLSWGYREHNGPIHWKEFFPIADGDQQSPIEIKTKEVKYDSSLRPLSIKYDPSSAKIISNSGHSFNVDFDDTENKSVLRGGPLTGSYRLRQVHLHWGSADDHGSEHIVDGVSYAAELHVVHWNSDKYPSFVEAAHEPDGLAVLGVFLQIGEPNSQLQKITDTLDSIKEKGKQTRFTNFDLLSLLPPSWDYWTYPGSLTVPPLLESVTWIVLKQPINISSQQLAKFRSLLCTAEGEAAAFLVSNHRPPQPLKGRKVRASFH
# Method Notes: Binding affinity to human recombinant carbonic anhydrase 13 by thermal shift assay
Could you please report measured pKd for the items listed next?
In textbook form, pKd equals minus log to base ten of the concentration in mol/L.

Kindly indicate its recorded pKd. Item: "NS(=O)(=O)c1cc(C(=O)Cn2c(CO)nc3ccccc32)ccc1Cl"
6.52

Kindly indicate its recorded pKd. Item: "NS(=O)(=O)c1cc(C(=O)CSc2nc3c(cnc4ccccc43)[nH]2)ccc1Cl"
7.00

Kindly indicate its recorded pKd. Item: "NS(=O)(=O)c1cc(C(=O)CSc2nc3ccc(Br)cc3[nH]2)ccc1Cl"
7.00

Kindly indicate its recorded pKd. Item: "NS(=O)(=O)c1cc(C(=O)CSc2nc3ccccc3[nH]2)ccc1Cl"
6.70

Kindly indicate its recorded pKd. Item: "NS(=O)(=O)c1cc(C(=O)Cn2c(CN3CCOCC3)nc3ccccc32)ccc1Cl"
4.90

Kindly indicate its recorded pKd. Item: "NS(=O)(=O)c1cc(C(=O)Cn2cnc3ccccc32)ccc1Cl"
6.15

Kindly indicate its recorded pKd. Item: "NS(=O)(=O)c1cc(C(=O)CSc2nc3cc4c(cc3[nH]2)OCCO4)ccc1Cl"
7.00

----------
# Tested Target: Carbonic anhydrase 7 (Homo sapiens, UniProt P43166)
# Sequence (P43166 whole entry): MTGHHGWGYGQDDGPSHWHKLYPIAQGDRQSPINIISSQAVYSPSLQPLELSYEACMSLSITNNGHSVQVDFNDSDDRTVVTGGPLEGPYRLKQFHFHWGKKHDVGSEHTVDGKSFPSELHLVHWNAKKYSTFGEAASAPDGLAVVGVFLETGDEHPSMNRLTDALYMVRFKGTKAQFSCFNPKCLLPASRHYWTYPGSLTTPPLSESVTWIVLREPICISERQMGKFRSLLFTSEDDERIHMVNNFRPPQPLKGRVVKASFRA
# Method Notes: Binding affinity to human recombinant carbonic anhydrase 7 by thermal shift assay
Could you please report measured pKd for the items listed next?
In textbook form, pKd equals minus log to base ten of the concentration in mol/L.

Would you please give the reported pKd of "NS(=O)(=O)c1cc(C(=O)CSc2nc3c(cnc4ccccc43)[nH]2)ccc1Cl" with Carbonic anhydrase 7 (Homo sapiens, UniProt P43166)?
7.00

Would you please give the reported pKd of "NS(=O)(=O)c1cc(C(=O)CSc2nc3ccccc3[nH]2)ccc1Cl" with Carbonic anhydrase 7 (Homo sapiens, UniProt P43166)?
7.52

Would you please give the reported pKd of "NS(=O)(=O)c1cc(C(=O)Cn2c(CN3CCOCC3)nc3ccccc32)ccc1Cl" with Carbonic anhydrase 7 (Homo sapiens, UniProt P43166)?
5.00

Would you please give the reported pKd of "NS(=O)(=O)c1cc(C(=O)CSc2nc3cc4c(cc3[nH]2)OCCO4)ccc1Cl" with Carbonic anhydrase 7 (Homo sapiens, UniProt P43166)?
7.00

Would you please give the reported pKd of "NS(=O)(=O)c1cc(C(=O)CSc2nc3ccc(Br)cc3[nH]2)ccc1Cl" with Carbonic anhydrase 7 (Homo sapiens, UniProt P43166)?
7.00

----------
Could you please report measured Kd for the items listed next?
# Tested Target: Carbonic anhydrase 2 (Homo sapiens, UniProt P00918)
# Method Notes: Binding affinity to human recombinant carbonic anhydrase 2 by thermal shift assay
State the result as a value with its unit after it.

Kindly indicate its recorded Kd. Item: "NS(=O)(=O)c1cc(C(=O)Cn2c(CN3CCOCC3)nc3ccccc32)ccc1Cl"
4200 nM

Kindly indicate its recorded Kd. Item: "CC(C)Cc1nc2ccccc2n1CC(=O)c1ccc(Cl)c(S(N)(=O)=O)c1"
400 nM

Kindly indicate its recorded Kd. Item: "NS(=O)(=O)c1cc(C(=O)CSc2nc3cc4c(cc3[nH]2)OCCO4)ccc1Cl"
20 nM

Kindly indicate its recorded Kd. Item: "NS(=O)(=O)c1cc(C(=O)CSc2nc3ccccc3[nH]2)ccc1Cl"
100 nM

----------
# Tested Target: Carbonic anhydrase 1 (Homo sapiens)
# Sequence (P00915 whole entry): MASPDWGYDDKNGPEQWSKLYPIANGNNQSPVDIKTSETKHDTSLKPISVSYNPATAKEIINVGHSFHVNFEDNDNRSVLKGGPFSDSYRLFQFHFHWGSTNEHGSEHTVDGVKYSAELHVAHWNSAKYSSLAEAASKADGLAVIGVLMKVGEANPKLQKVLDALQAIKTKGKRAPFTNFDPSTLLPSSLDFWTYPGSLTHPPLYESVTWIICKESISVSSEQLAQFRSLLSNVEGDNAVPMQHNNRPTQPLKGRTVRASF
# Method Notes: Binding affinity to human recombinant carbonic anhydrase 1 by isothermal titration calorimetry assay
Result Type: Kd (nM)
Answer with a number only, understood to be in nM.

Would you please give the reported Kd of "NS(=O)(=O)c1cc(C(=O)CSc2nc3ccccc3[nH]2)ccc1Cl" with Carbonic anhydrase 1 (Homo sapiens)?
1300

Would you please give the reported Kd of "NS(=O)(=O)c1cc(C(=O)CSc2nc3ccc(Br)cc3[nH]2)ccc1Cl" with Carbonic anhydrase 1 (Homo sapiens)?
1400

Would you please give the reported Kd of "NS(=O)(=O)c1cc(C(=O)CSc2nc3cc4c(cc3[nH]2)OCCO4)ccc1Cl" with Carbonic anhydrase 1 (Homo sapiens)?
2200

----------
# Tested Target: Carbonic anhydrase 7 (Homo sapiens, UniProt P43166)
# Method Notes: Binding affinity to human recombinant carbonic anhydrase 7 by isothermal titration calorimetry assay
Could you please report measured Kd for the items listed next?
State the result as a value with its unit after it.

Kindly indicate its recorded Kd. Item: "NS(=O)(=O)c1cc(C(=O)CSc2nc3ccccc3[nH]2)ccc1Cl"
100 nM

Kindly indicate its recorded Kd. Item: "NS(=O)(=O)c1cc(C(=O)CSc2nc3cc4c(cc3[nH]2)OCCO4)ccc1Cl"
1100 nM

----------
# Tested Target: Carbonic anhydrase 1 (Homo sapiens)
# Method Notes: Binding affinity to human recombinant carbonic anhydrase 1 by thermal shift assay
Result Type: Kd (nM)
Answer with a number only, understood to be in nM.

Kindly indicate its recorded Kd. Item: "NS(=O)(=O)c1cc(C(=O)CSc2nc3cc4c(cc3[nH]2)OCCO4)ccc1Cl"
3100

Kindly indicate its recorded Kd. Item: "NS(=O)(=O)c1cc(C(=O)CSc2nc3ccc(Br)cc3[nH]2)ccc1Cl"
1300

Kindly indicate its recorded Kd. Item: "NS(=O)(=O)c1cc(C(=O)CSc2nc3ccccc3[nH]2)ccc1Cl"
1000

Kindly indicate its recorded Kd. Item: "NS(=O)(=O)c1cc(C(=O)Cn2c(CN3CCOCC3)nc3ccccc32)ccc1Cl"
40000

Kindly indicate its recorded Kd. Item: "NS(=O)(=O)c1cc(C(=O)CSc2nc3c(cnc4ccccc43)[nH]2)ccc1Cl"
1300

The origin of these recorded values is ChEMBL document CHEMBL1268957.
